Let's look at some molecules and their measured zone of inhibition at 100 µg/disc.
tested on: Aspergillus clavatus; experiment: Antifungal activity against Aspergillus clavatus at 100 ug/disc after 48 hr by paper disk diffusion method; format: functional; details: read-out: IZ
Number only, in mm; omit the unit.

Reference set, count: 3
molecule	reported
Cc1cc(=O)oc2cc(Oc3nc(Nc4ccc(N5C(=O)CSC5c5ccc(Cl)cc5Cl)cc4)nc(N(C)C)n3)ccc12 (configuration not stated)	19
Cc1cc(=O)oc2cc(Oc3nc(Nc4ccc(/N=C/c5ccc(Cl)cc5Cl)cc4)nc(N(C)C)n3)ccc12	17
Cc1cc(=O)oc2cc(Oc3nc(Nc4ccc(N5C(=O)C(CN6CCN(c7ccccn7)CC6)SC5c5ccc(F)cc5)cc4)nc(N(C)C)n3)ccc12 (configuration not stated)	26

### Prompt Request the reported zone of inhibition at 100 µg/disc associated with Cc1cc(=O)oc2cc(Oc3nc(Nc4ccc(N5C(=O)CSC5c5ccc(Cl)c(Cl)c5)cc4)nc(N(C)C)n3)ccc12 (configuration not stated)
### Response 18

### Prompt Field request: zone of inhibition at 100 µg/disc | item: Cc1cc(=O)oc2cc(Oc3nc(Nc4ccc(N5C(=O)C(CN6CCN(c7ccccn7)CC6)SC5c5ccc(O)cc5O)cc4)nc(N(C)C)n3)ccc12 (configuration not stated)
### Response 22

### Prompt Dear colleague, I am looking for the recorded zone of inhibition at 100 µg/disc of the following molecule: Cc1cc(=O)oc2cc(Oc3nc(Nc4ccc(N5C(=O)CSC5c5ccccc5C(=O)O)cc4)nc(N(C)C)n3)ccc12 (configuration not stated)
### Response 13

### Prompt If you can, please state the reported zone of inhibition at 100 µg/disc value of Cc1cc(=O)oc2cc(Oc3nc(Nc4ccc(N5C(=O)CSC5c5ccccc5)cc4)nc(N(C)C)n3)ccc12 (configuration not stated) .
### Response 13

----------
system: Candida albicans; test: Antifungal activity against Candida albicans at 100 ug/disk after 48 hr by paper disk diffusion method; format: functional; details: read-out: IZ
Catalogue of zone of inhibition at 100 µg/disc readings, one per entry.
Response body: numeric value in mm, unit text excluded.

molecule	zone of inhibition at 100 µg/disc / mm
Cc1cc(=O)oc2cc(Oc3nc(Nc4ccc(N5C(=O)C(CN6CCN(c7ccccn7)CC6)SC5c5ccc([N+](=O)[O-])cc5)cc4)nc(N(C)C)n3)ccc12 (stereo unspecified)	13
CC(=O)N1CCN(c2ccc(OCC3COC(Cn4ccnc4)(c4ccc(Cl)cc4Cl)O3)cc2)CC1 (stereo unspecified) [KETOCONAZOLE]	33
Cc1cc(=O)oc2cc(Oc3nc(Nc4ccc(N5C(=O)C(CN6CCN(c7ccccn7)CC6)SC5c5ccc(Cl)c(Cl)c5)cc4)nc(N(C)C)n3)ccc12 (stereo unspecified)	17
Cc1cc(=O)oc2cc(Oc3nc(Nc4ccc(/N=C/c5ccc(Cl)c(Cl)c5)cc4)nc(N(C)C)n3)ccc12	10
Cc1cc(=O)oc2cc(Oc3nc(Nc4ccc(N5C(=O)CSC5c5ccc(Cl)cc5Cl)cc4)nc(N(C)C)n3)ccc12 (stereo unspecified)	16
Cc1cc(=O)oc2cc(Oc3nc(Nc4ccc(/N=C/c5ccc(F)cc5)cc4)nc(N(C)C)n3)ccc12	21

### Prompt What does the data say about its zone of inhibition at 100 µg/disc? Entry: `Cc1cc(=O)oc2cc(Oc3nc(Nc4ccc(/N=C/c5ccc(O)cc5)cc4)nc(N(C)C)n3)ccc12`
### Response 16

### Prompt Request the reported zone of inhibition at 100 µg/disc associated with Cc1cc(=O)oc2cc(Oc3nc(Nc4ccc(N5C(=O)C(CN6CCN(c7ccccn7)CC6)SC5c5cccc(F)c5)cc4)nc(N(C)C)n3)ccc12 (stereo unspecified)
### Response 21

### Prompt Give the measured zone of inhibition at 100 µg/disc of `Cc1cc(=O)oc2cc(Oc3nc(Nc4ccc(/N=C/c5ccccc5Br)cc4)nc(N(C)C)n3)ccc12` .
### Response 19

### Prompt Data request, read-out zone of inhibition at 100 µg/disc, for Cc1cc(=O)oc2cc(Oc3nc(Nc4ccc(N5C(=O)C(CN6CCN(c7ccccn7)CC6)SC5c5ccc(Cl)cc5)cc4)nc(N(C)C)n3)ccc12 (stereo unspecified)
### Response 26

### Prompt I am curious: what zone of inhibition at 100 µg/disc value has been reported for Cc1cc(=O)oc2cc(Oc3nc(Nc4ccc(N5C(=O)C(CN6CCN(c7ccccn7)CC6)SC5c5ccccc5)cc4)nc(N(C)C)n3)ccc12 (stereo unspecified) ?
### Response 12

### Prompt Requested read-out: zone of inhibition at 100 µg/disc. Entry: Cc1cc(=O)oc2cc(Oc3nc(Nc4ccc(N5C(=O)CSC5c5cccc(F)c5)cc4)nc(N(C)C)n3)ccc12 (stereo unspecified)
### Response 18

### Prompt I would be grateful if you could share the reported zone of inhibition at 100 µg/disc for Cc1cc(=O)oc2cc(Oc3nc(Nc4ccc(N5C(=O)C(CN6CCN(c7ccccn7)CC6)SC5c5ccc(O)cc5)cc4)nc(N(C)C)n3)ccc12 (stereo unspecified) .
### Response 23
